target: Human CD137 ECD (human); assay: single mutant vs template dBBDu183H
Sequence (chain, as listed by the source limits assumed): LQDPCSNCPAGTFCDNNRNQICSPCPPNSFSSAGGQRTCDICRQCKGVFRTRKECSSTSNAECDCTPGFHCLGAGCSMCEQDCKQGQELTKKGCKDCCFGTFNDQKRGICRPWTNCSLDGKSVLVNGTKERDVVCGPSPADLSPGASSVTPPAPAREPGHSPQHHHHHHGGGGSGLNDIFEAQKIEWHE
Reported fold change of affinity is given for each of the following binders.
Reply with the number and its unit after it.

INSERT INTO measurements (binder, observation_type, result) VALUES
  ('H183/L072 VH W33P (antibody, name in Kabat numbering, V domains shown) VH: QVQLVESGGGLVQPGRSLRLSCAASGFTFSNAPMHWVRQAPGKGLEWVAQIKDKGNAYAAYYAPSVKGRFTISRDDSKNSIYLQMNSLKTEDTAVYYCHYVHYASASTVLPAFGVDAWGQGTTVTVSS VL: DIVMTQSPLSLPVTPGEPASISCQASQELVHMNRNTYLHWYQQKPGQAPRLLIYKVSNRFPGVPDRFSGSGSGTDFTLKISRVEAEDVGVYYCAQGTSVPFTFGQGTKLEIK', 'fold change of affinity', '0 fold'),
  ('H183/L072 VH W33Q (antibody, name in Kabat numbering, V domains shown) VH: QVQLVESGGGLVQPGRSLRLSCAASGFTFSNAQMHWVRQAPGKGLEWVAQIKDKGNAYAAYYAPSVKGRFTISRDDSKNSIYLQMNSLKTEDTAVYYCHYVHYASASTVLPAFGVDAWGQGTTVTVSS VL: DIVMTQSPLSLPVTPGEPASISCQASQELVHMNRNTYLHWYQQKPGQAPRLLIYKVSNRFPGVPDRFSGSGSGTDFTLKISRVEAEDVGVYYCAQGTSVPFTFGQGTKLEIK', 'fold change of affinity', '0 fold'),
  ('H183/L072 VH H35Q (antibody, name in Kabat numbering, V domains shown) VH: QVQLVESGGGLVQPGRSLRLSCAASGFTFSNAWMQWVRQAPGKGLEWVAQIKDKGNAYAAYYAPSVKGRFTISRDDSKNSIYLQMNSLKTEDTAVYYCHYVHYASASTVLPAFGVDAWGQGTTVTVSS VL: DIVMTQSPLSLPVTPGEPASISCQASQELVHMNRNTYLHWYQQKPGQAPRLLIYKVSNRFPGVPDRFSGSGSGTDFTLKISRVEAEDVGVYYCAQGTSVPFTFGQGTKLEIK', 'fold change of affinity', '0 fold'),
  ('H183/L072 VH N53V (antibody, name in Kabat numbering, V domains shown) VH: QVQLVESGGGLVQPGRSLRLSCAASGFTFSNAWMHWVRQAPGKGLEWVAQIKDKGVAYAAYYAPSVKGRFTISRDDSKNSIYLQMNSLKTEDTAVYYCHYVHYASASTVLPAFGVDAWGQGTTVTVSS VL: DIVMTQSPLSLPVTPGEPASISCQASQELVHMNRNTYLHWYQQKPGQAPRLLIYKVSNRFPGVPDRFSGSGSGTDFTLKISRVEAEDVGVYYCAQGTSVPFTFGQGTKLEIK', 'fold change of affinity', '0 fold');

Complete the entry with fold change of affinity for H183/L072 VH H35L (antibody, name in Kabat numbering, V domains shown) VH: QVQLVESGGGLVQPGRSLRLSCAASGFTFSNAWMLWVRQAPGKGLEWVAQIKDKGNAYAAYYAPSVKGRFTISRDDSKNSIYLQMNSLKTEDTAVYYCHYVHYASASTVLPAFGVDAWGQGTTVTVSS VL: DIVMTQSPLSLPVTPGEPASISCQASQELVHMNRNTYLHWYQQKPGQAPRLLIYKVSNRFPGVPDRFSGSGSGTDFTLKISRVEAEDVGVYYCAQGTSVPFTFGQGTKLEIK
0 fold

meta.source: patent US20210388087A1
